target: T1, KDR/VEGF complex (KDR-Fc mixed or saturated with VEGF) (human, UniProt P35968 20-764; P15692 27-191); assay: fluorescence anisotropy, fluorescein-labeled peptide, KDR-Fc with two fold excess VEGF
T1 construct: anisotropy: two fold molar excess of VEGF mixed with KDR-Fc; Biacore: KDR-Fc chip saturated with VEGF; also called KDR:VEGF165 complex
T1 sequence (P35968 20-764, chain 1 of 2): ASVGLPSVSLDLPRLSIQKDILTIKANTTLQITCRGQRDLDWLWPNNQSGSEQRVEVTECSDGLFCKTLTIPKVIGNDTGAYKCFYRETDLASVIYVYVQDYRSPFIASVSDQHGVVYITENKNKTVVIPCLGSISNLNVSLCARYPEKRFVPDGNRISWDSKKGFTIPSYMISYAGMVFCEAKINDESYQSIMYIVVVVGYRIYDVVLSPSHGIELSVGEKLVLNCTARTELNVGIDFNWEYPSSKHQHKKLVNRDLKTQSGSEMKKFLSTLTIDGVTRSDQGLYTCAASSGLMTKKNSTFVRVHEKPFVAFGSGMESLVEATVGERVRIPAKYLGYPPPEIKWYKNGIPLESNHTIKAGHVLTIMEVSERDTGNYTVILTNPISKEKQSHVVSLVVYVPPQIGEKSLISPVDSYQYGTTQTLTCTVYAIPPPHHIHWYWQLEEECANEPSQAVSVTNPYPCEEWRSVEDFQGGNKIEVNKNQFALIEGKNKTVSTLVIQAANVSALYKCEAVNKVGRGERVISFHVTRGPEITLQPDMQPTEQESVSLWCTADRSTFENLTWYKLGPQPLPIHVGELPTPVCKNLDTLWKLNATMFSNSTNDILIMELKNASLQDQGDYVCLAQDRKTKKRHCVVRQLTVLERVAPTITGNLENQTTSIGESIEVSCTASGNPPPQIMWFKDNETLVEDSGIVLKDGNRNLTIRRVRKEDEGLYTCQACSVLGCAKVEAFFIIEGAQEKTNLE
T1 sequence (P15692 other isoform, or with tags, fused parts or gaps, chain 2 of 2): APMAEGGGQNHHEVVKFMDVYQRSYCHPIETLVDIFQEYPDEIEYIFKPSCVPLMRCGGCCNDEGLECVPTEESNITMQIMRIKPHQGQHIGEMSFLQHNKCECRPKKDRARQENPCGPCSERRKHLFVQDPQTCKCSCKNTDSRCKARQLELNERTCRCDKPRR
pKd: −log10 of the molar value. Bridge positions count the residues as written; N and C are the ends.
# key: entry, value: pKd
property_name: pKd

1. Ac-AGYGPCKNMPPWMCWHEGTGGGK-NH2 (disulfide 6-14 (inferred); not fully specified; also: C-terminal Lys fluorescein-labeled in some assay forms) [SEQ ID NO:323]; 6.74
2. Ac-AGGHPCKGMLPHTCWYEGTGGGK-NH2 (disulfide 6-14 (inferred); not fully specified; also: C-terminal Lys fluorescein-labeled in some assay forms) [SEQ ID NO:324]; 5.48
3. Ac-AQEGWFRNPQEIMGFGDSWDKPGGGGGK-NH2 (not fully specified; also: C-terminal Lys fluorescein-labeled in some assay forms) [SEQ ID NO:326]; 5.85
